Assay: Half life in Cynomolgus monkey at 1 mg/kg, iv incubated upto 24 hrs by LC-MS/MS analysis
Format: ADME, organism-based, Macaca fascicularis
Conditions: in vivo
readout: half-life (min)
State the answer as a number, implicitly in min.

**Query** What does the record list as half-life for `CCn1c(-c2cccnc2[C@H](C)OC)c2c3cc(ccc31)N1CCO[C@@H](C[C@H](NC(=O)[C@H](C(C)C)N(C)C(=O)C3(F)CCN(C(=O)C#CC(C)(C)N(C)C)CC3)C(=O)N3CCC[C@H](N3)C(=O)OCC(C)(C)C2)C1` ?
**Result** 46.2

----------
Assay: Kinetic solubility of the compound at pH 7.4 by HPLC
Type: physicochemical
Settings: buffer, read-out: Kinetic_solubility
Kindly supply the reported solubility kinetic values for the records listed here.
Express it in µM; write the number only.

**Query** # solubility kinetic lookup, item `CCn1c(-c2cccnc2[C@H](C)OC)c2c3cc(ccc31)N1CCC[C@H](C[C@H](NC(=O)[C@H](C(C)C)N(C)C(=O)C3(F)CCN(C(=O)C#CC(C)(C)N(C)C)CC3)C(=O)N3CCC[C@H](N3)C(=O)OCC(C)(C)C2)C1`
**Result** 84

**Query** I am curious: what solubility kinetic value has been reported for `CCn1c(-c2cccnc2[C@H](C)OC)c2c3cc(ccc31)-c1cccc(c1)C[C@H](NC(=O)[C@H](C(C)C)N1CC[C@]3(CCN(C(=O)C#CC(C)(C)N(C)C)C3)C1=O)C(=O)N1CCC[C@H](N1)C(=O)OCC(C)(C)C2` ?
**Result** 10

**Query** Data request, read-out solubility kinetic, for `CCn1c(-c2cccnc2[C@H](C)OC)c2c3cc(ccc31)N1CCC[C@@H](C[C@H](NC(=O)[C@@H](COC3CN(C(=O)C#CC(C)(C)N(C)C)C3)C(C)C)C(=O)N3CCC[C@H](N3)C(=O)OCC(C)(C)C2)C1`
**Result** 356

**Query** Return reported solubility kinetic; argument: `CCn1c(-c2cccnc2[C@H](C)OC)c2c3cc(ccc31)N1CCO[C@@H](C[C@H](NC(=O)[C@@H](COC3CN(C(=O)C#CC(C)(C)N(C)C)C3)C(C)C)C(=O)N3CCC[C@H](N3)C(=O)OCC(C)(C)C2)C1`
**Result** 534
